Target chain: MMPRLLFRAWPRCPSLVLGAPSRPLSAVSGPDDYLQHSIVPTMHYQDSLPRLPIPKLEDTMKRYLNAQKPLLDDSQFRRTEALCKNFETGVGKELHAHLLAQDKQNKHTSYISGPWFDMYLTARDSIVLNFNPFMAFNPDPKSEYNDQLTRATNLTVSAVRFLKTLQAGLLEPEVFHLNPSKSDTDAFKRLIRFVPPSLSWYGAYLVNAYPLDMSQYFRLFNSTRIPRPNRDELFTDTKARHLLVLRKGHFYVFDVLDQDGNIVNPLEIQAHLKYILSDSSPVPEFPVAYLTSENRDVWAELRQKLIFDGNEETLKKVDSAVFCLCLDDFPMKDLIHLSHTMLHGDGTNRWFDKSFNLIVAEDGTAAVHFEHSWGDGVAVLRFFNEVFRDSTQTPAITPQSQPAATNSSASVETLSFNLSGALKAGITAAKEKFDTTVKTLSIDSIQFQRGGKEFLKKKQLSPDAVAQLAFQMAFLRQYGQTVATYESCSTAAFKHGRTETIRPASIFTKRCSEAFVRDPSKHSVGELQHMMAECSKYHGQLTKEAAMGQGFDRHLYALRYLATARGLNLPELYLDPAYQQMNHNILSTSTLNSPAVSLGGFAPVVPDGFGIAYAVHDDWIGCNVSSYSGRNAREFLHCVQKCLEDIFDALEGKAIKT
pIC50: −log10 of the molar value.
Assay Metric: pIC50

- Molecule: "O=C(COc1ccccc1)N1CCCC[C@@H]1c1noc(-c2ccc3[nH]cnc3c2)n1"
  Assay Metric: "pIC50"
  Val: 4.18
- Molecule: "COc1ccc(Cl)cc1S(=O)(=O)c1cn(CS(C)(=O)=O)c2ccc(C(=O)Nc3ccccc3)cc12"
  Assay Metric: "pIC50"
  Val: "< 4.00"
- Molecule: "COc1ccc(Cl)cc1CN1C(=O)OC(C)(C)c2ccc(C(=O)Nc3ccc(CC(=O)O)c(Cl)c3)cc21"
  Assay Metric: "pIC50"
  Val: "< 4.00"
- Molecule: "Nc1ccc(-c2noc([C@H]3CCCCN3C(=O)COc3ccccc3)n2)cn1"
  Assay Metric: "pIC50"
  Val: 4.52
- Molecule: "COc1ccc(Cl)cc1S(=O)(=O)c1nn(C)c2ccc(C(=O)Nc3ccc(C(=O)O)c(Cl)c3)cc12"
  Assay Metric: "pIC50"
  Val: 4.45
- Molecule: "O=C(COc1ccccc1)N1CCCC[C@@H]1c1csc(-c2ccc(C(F)(F)F)nc2)n1"
  Assay Metric: "pIC50"
  Val: "< 4.00"
- Molecule: "COc1ccc(Cl)cc1S(=O)(=O)N1CCOc2ncc(C(=O)Nc3ccc(C(=O)O)cc3)cc21"
  Assay Metric: "pIC50"
  Val: "< 4.00"
- Molecule: "CCN(CC)C(=O)c1nc([C@H]2CCCCN2C(=O)COc2ccccc2)no1"
  Assay Metric: "pIC50"
  Val: "< 4.00"
- Molecule: "O=C1COc2cc(C#C[C@H]3CCCCN3C(=O)COc3ccccc3)ccc2N1"
  Assay Metric: "pIC50"
  Val: "< 4.00"
- Molecule: "COc1ccc(Cl)cc1S(=O)(=O)N1CCOc2c(F)cc(C(=O)Nc3nc(CC(=O)O)cs3)cc21"
  Assay Metric: "pIC50"
  Val: "< 4.00"
- Molecule: "O=C(COc1ccccc1)N1CCCC[C@@H]1c1noc(-c2cc([N+](=O)[O-])[nH]n2)n1"
  Assay Metric: "pIC50"
  Val: "< 4.00"
- Molecule: "Cc1ccnc(N2CCN(C(=O)[C@H]3CCCCN3C(=O)COc3ccccc3)CC2)c1"
  Assay Metric: "pIC50"
  Val: 5.90
- Molecule: "COc1ccc(Cl)cc1S(=O)(=O)N1CCOc2ccc(C(=O)Nc3ccc(-c4noc(=O)[nH]4)cc3)cc21"
  Assay Metric: "pIC50"
  Val: "< 4.00"
- Molecule: "O=C([C@H]1CCCCN1C(=O)COc1ccccc1)N1Cc2cc(F)c(N3CCOCC3)cc2C1"
  Assay Metric: "pIC50"
  Val: 5.70
- Molecule: "O=C([C@H]1CCCCN1C(=O)COc1ccccc1)N1Cc2cc(Cl)c(N3CCOCC3)cc2C1"
  Assay Metric: "pIC50"
  Val: 6.30
- Molecule: "O=C(COc1ccccc1)N1CCCC[C@@H]1c1noc(-c2ccc3[nH]nnc3c2)n1"
  Assay Metric: "pIC50"
  Val: "< 4.00"
- Molecule: "COc1ccc(Cl)cc1S(=O)(=O)N1CCOc2ccc(C(=O)Nc3nc(CC(=O)O)cs3)cc21"
  Assay Metric: "pIC50"
  Val: "< 4.00"
- Molecule: "COc1ccc(Cl)cc1S(=O)(=O)c1cn(CSC)c2ccc(C(=O)Nc3ccccc3)cc12"
  Assay Metric: "pIC50"
  Val: "< 4.00"
- Molecule: "O=C(O)c1ccc(NC(=O)c2cccc(S(=O)(=O)N3CCCc4ccc(C(F)(F)F)cc43)c2)cc1"
  Assay Metric: "pIC50"
  Val: 5.53
- Molecule: "N#Cc1ccc(-c2nc([C@H]3CCCCN3C(=O)COc3ccccc3)no2)cc1"
  Assay Metric: "pIC50"
  Val: "< 4.00"
- Molecule: "COc1ccc(Cl)cc1S(=O)(=O)N1CCc2ccc(C(=O)Nc3ccn(CC(=O)O)n3)cc21"
  Assay Metric: "pIC50"
  Val: "< 4.00"
- Molecule: "COc1ccc(Cl)cc1S(=O)(=O)N1CCc2ccc(C(=O)Nc3ccc(C(=O)O)cc3)cc21"
  Assay Metric: "pIC50"
  Val: 5.11
- Molecule: "Cc1cc(-c2nc([C@H]3CCCCN3C(=O)COc3ccccc3)no2)n(C)n1"
  Assay Metric: "pIC50"
  Val: "< 4.00"
- Molecule: "O=C(COc1ccccc1)N1CCCC[C@@H]1c1nnn(-c2ccccc2)n1"
  Assay Metric: "pIC50"
  Val: "< 4.00"
- Molecule: "CCCN(c1cc(C(=O)Nc2nc(CC(=O)O)cs2)cc2c1OCO2)S(=O)(=O)c1cc(Cl)ccc1OC"
  Assay Metric: "pIC50"
  Val: "< 4.00"
- Molecule: "O=C(COc1ccccc1)N1CCCC[C@@H]1c1nnn(-c2ccc3[nH]ccc3c2)n1"
  Assay Metric: "pIC50"
  Val: "< 4.00"
- Molecule: "COc1ccc(Cl)cc1S(=O)(=O)N(C)c1cc(C(=O)Nc2nc(CC(=O)O)cs2)cc2c1OCO2"
  Assay Metric: "pIC50"
  Val: 4.17
- Molecule: "COc1ccc(Cl)cc1S(=O)(=O)N1CCCc2ccc(NC(=O)c3ccc(CC(=O)O)cc3)cc21"
  Assay Metric: "pIC50"
  Val: "< 4.00"
- Molecule: "Cn1cc(Sc2cccc(Cl)c2)c2cc(C(=O)Nc3ccc(C(=O)O)cc3)ccc21"
  Assay Metric: "pIC50"
  Val: 5.13
- Molecule: "O=C(COc1ccccc1)N1CCCC[C@@H]1c1noc(-c2cc(F)c(F)cc2F)n1"
  Assay Metric: "pIC50"
  Val: "< 4.00"
- Molecule: "O=C1Cc2cc(-c3noc(C4C5CC5CN4C(=O)COc4ccccc4)n3)ccc2N1 (configuration not stated)"
  Assay Metric: "pIC50"
  Val: 4.03
- Molecule: "COc1ccc(C)cc1S(=O)(=O)N1CCCc2ccc(C(=O)Nc3ccc(C(=O)O)c(F)c3)cc21"
  Assay Metric: "pIC50"
  Val: 5.09
- Molecule: "COc1ccc(Cl)cc1Cc1cn(C)c2ccc(C(=O)Nc3ccc(CC(=O)O)cc3)cc12"
  Assay Metric: "pIC50"
  Val: "< 4.00"
- Molecule: "COc1ccc(Cl)cc1S(=O)(=O)c1c2cc(C(=O)Nc3ccccc3)ccc2nn1C"
  Assay Metric: "pIC50"
  Val: "< 4.00"
- Molecule: "CCN(c1cc(C(=O)Nc2ncc(CC(=O)O)s2)cc2c1OCO2)S(=O)(=O)c1cc(Cl)ccc1OC"
  Assay Metric: "pIC50"
  Val: "< 4.00"
- Molecule: "O=C(COc1ccccc1)N1CCCC[C@@H]1c1nc(-c2ccc([N+](=O)[O-])s2)no1"
  Assay Metric: "pIC50"
  Val: "< 4.00"
- Molecule: "COc1ccc(Cl)cc1S(=O)(=O)N1CCOc2c(C(F)F)cc(C(=O)Nc3ccc(C(=O)O)cc3)cc21"
  Assay Metric: "pIC50"
  Val: 4.80
